target: Beta-1 adrenergic receptor (Cavia porcellus); details: Cardiac atrium
Description: Adrenergic agonist activity on guinea pig right atrial (Beta-1 adrenergic receptor) tissue
MEASURE NAME: pD2

COMPOUND	TARGET UNDER TEST	MEASURED
O=[N+]([O-])c1ccc(CC2NCCc3cc(O)c(O)cc32)cc1 (stereo not given)	Beta-1 adrenergic receptor (Cavia porcellus)	7.26
Nc1ccc(CC2NCCc3cc(O)c(O)cc32)cc1 (stereo not given)	Beta-1 adrenergic receptor (Cavia porcellus)	6.21
COc1cc(C[C@@H]2NCCc3cc(O)c(O)cc32)cc(OC)c1OC [TRETOQUINOL]	Beta-1 adrenergic receptor (Cavia porcellus)	7.36
COc1cc(CC2c3cc(O)c(O)cc3CCN2CCc2ccccc2)cc(OC)c1OC (stereo not given)	Beta-1 adrenergic receptor (Cavia porcellus)	4.62
O=[N+]([O-])c1cc(CC2NCCc3cc(O)c(O)cc32)ccc1O (stereo not given)	Beta-1 adrenergic receptor (Cavia porcellus)	5.91

---

organism: Homo sapiens; assay: Inhibitory activity against U-46,619-induced (1 uM) human platelet activation (aggregation); assay type: functional
pIC50: −log10 of the molar value.
MEASURE NAME: pIC50

Field: example entries. Status: answers known.
MOLECULE	MEASURED
COc1cc(CC2c3cc(O)c(O)cc3CCN2CCc2ccccc2)cc(OC)c1OC (stereo unspecified)	4.42
COc1cc(NC2=NCCc3cc(O)c(O)cc32)cc(OC)c1OC	3.70
COc1cc(C[C@@H]2NCCc3cc(O)c(O)cc32)cc(OC)c1OC [TRETOQUINOL]	5.94

I. Nc1ccc(CC2NCCc3cc(O)c(O)cc32)cc1 (stereo unspecified)
II. O=[N+]([O-])c1cc(CC2NCCc3cc(O)c(O)cc32)ccc1O (stereo unspecified)
III. O=[N+]([O-])c1ccc(CC2NCCc3cc(O)c(O)cc32)cc1 (stereo unspecified)
// ascending sort on recorded pIC50 Dear reader, please state the labels in the requested order. I, III, II

---

pD2 data for Beta-2 adrenergic receptor (Cavia porcellus) follow.
MEASURE NAME: pD2

a. O=[N+]([O-])c1ccc(CC2NCCc3cc(O)c(O)cc32)cc1 (stereo unspecified)
b. COc1cc(NC2=NCCc3cc(O)c(O)cc32)cc(OC)c1OC
Please state the entry with greater pD2 among a and b . // caller expects the label of the chosen entry a
(a: 7.49, b: 3.95)

---

species: Homo sapiens; assay: Inhibitory activity against U-46,619-induced (1 uM) human platelet activation (Serotonin secretion); assay type: functional
pIC50: −log10 of the molar value.
MEASURE NAME: pIC50

Reference set, count: 2
MOLECULE	MEASURE NAME	MEASURED
Nc1ccc(CC2NCCc3cc(O)c(O)cc32)cc1 (stereo unspecified)	pIC50	3.84
COc1cc(C[C@@H]2NCCc3cc(O)c(O)cc32)cc(OC)c1OC	pIC50	5.88

1. COc1cc(NC2=NCCc3cc(O)c(O)cc32)cc(OC)c1OC
2. O=[N+]([O-])c1cc(CC2NCCc3cc(O)c(O)cc32)ccc1O (stereo unspecified)
3. COc1cc(CC2c3cc(O)c(O)cc3CCN2CCc2ccccc2)cc(OC)c1OC (stereo unspecified)
4. O=[N+]([O-])c1ccc(CC2NCCc3cc(O)c(O)cc32)cc1 (stereo unspecified)
Please list these molecules in decreasing order of pIC50. Output spec: a listing of the labels in the requested order. 2, 3, 4, 1

---

molecular target: Thromboxane A2 receptor (Homo sapiens); assay: Inhibitory concentration against radioligand [3H]SQ-29,548 (5 nM) binding to TP receptors in human platelets
Sequence (P21731 whole entry): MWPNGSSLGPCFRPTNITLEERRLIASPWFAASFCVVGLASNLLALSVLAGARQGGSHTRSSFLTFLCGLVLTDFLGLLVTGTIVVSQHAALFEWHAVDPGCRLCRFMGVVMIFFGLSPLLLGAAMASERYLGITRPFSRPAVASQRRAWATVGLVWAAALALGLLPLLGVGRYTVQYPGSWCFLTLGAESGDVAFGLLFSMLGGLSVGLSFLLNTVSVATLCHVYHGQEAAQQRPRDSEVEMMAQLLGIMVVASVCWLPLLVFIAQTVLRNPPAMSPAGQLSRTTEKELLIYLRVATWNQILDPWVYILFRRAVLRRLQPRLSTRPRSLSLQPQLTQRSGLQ
MEASURE NAME: IC50 (µM)

Take a look at these entries with their results.
COMPOUND	IC50 (µM)
Nc1ccc(CC2NCCc3cc(O)c(O)cc32)cc1 (stereo not given)	89.1
O=[N+]([O-])c1cc(CC2NCCc3cc(O)c(O)cc32)ccc1O (stereo not given)	0.871
COc1cc(CC2c3cc(O)c(O)cc3CCN2CCc2ccccc2)cc(OC)c1OC (stereo not given)	41.7

A. O=[N+]([O-])c1ccc(CC2NCCc3cc(O)c(O)cc32)cc1 (stereo not given)
B. COc1cc(N=C2NCCc3cc(O)c(O)cc32)cc(OC)c1OC
Which numeric IC50 is bigger, that of A or that of B ? Answer = label. B

---

Observed pD2, system Beta-2 adrenergic receptor (Cavia porcellus).
MEASURE NAME: pD2

1. COc1cc(C[C@@H]2NCCc3cc(O)c(O)cc32)cc(OC)c1OC
2. COc1cc(CC2c3cc(O)c(O)cc3CCN2CCc2ccccc2)cc(OC)c1OC (centres undefined)
Compare 1 and 2 by numeric pD2 and name the larger one. Label of pick, please. 1

Data origin: ChEMBL document CHEMBL1130381
